target: Calmodulin-1 (Homo sapiens) (UniProt P0DP23); test: calcium-bound CALM1 binders on microarrays, profiling panel, artefact control for SMM control-protein annotation, biochemical, small-molecule microarray, Cy5-labelled CALM1, plus calcium (AID 1112); conditions: Cy5-CALM1 binding fluorescence, higher = more signal;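 also: score merges spot fluorescence with signal to noise from triplicate slides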
measuredProperty: composite z-score

[[record]]
compound = "Cc1ccc(S[C@]2(C(=O)NCCN3CCOCC3)CC(=O)N(Cc3ccccc3Cl)[C@@H]2c2ccc(CO)cc2)cc1"
measuredproperty = "composite z-score"
measuredresult = 0.148

[[record]]
compound = "CC(C)OC(=O)C=C1C[C@@H](c2ccccc2C(F)(F)F)O[C@@H](c2ccccc2C(F)(F)F)O1"
measuredproperty = "composite z-score"
measuredresult = -0.624

[[record]]
compound = "O=C1NC(=O)C2C1C=CC(C(O)c1cccc3ccccc13)N2Nc1ccccn1 (centres undefined)"
measuredproperty = "composite z-score"
measuredresult = -0.477

[[record]]
compound = "CC1CC/C=C\\[C@H]2OC34C=CCN(c5ccc(Cl)cc5)C(=O)[C@H]3N(CCO)C(=O)[C@]4(C)C2C(=O)O1 (some centres undefined)"
measuredproperty = "composite z-score"
measuredresult = -0.633

